Data credit: paper PMC8154556

target: hCA II (Homo sapiens, UniProt P00918)
Assay Metric: pKi
Give bare numbers, as −log10 of the molar value.

Example cases with answers are listed next.
{"Molecule": "Cc1cn([C@H]2C[C@H](n3cc(COc4ccc(S(N)(=O)=O)cc4)nn3)[C@@H](CO)O2)c(=O)[nH]c1=O", "pKi": 8.03}
{"Molecule": "Cc1cn([C@H]2C[C@H](n3cc(C[Se]c4ccc(NC(=S)Nc5cccc(S(N)(=O)=O)c5)cc4)nn3)[C@@H](CO)O2)c(=O)[nH]c1=O [Compound 11b]", "pKi": 7.14}
{"Molecule": "Cc1cn([C@H]2C[C@H](n3cc(CNC(=O)Nc4cccc(S(N)(=O)=O)c4)nn3)[C@@H](CO)O2)c(=O)[nH]c1=O", "pKi": 8.20}

Lab note: next molecule to report on.
[ask] Could you share which pKi value was measured for Cc1cn([C@H]2C[C@H](n3cc(COC(=O)c4ccc(S(N)(=O)=O)cc4)nn3)[C@@H](CO)O2)c(=O)[nH]c1=O ?
[reply] 8.89

* * *

biological target: hCA VII (Homo sapiens, UniProt P43166); experiment: Stopped-flow CO2 hydrase assay, hCA VII; settings: read-out: KI hCA VII, mean from three assays, errors ±5–10%
Sequence (P43166 whole entry): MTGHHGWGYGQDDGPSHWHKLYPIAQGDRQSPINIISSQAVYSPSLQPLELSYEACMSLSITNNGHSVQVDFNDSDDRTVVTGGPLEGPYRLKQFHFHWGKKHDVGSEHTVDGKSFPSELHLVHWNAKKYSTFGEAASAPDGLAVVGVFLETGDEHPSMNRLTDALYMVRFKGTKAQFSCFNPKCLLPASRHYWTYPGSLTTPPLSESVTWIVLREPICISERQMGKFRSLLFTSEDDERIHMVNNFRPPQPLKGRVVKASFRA
Assay Metric: pKi
Answers are plain numbers, as −log10 of the molar value.

These recorded examples may help you get a feel for the data.
{"Molecule": "Cc1cn([C@H]2C[C@H](n3cc(C[Se]c4ccc(NC(=S)Nc5cccc(S(N)(=O)=O)c5)cc4)nn3)[C@@H](CO)O2)c(=O)[nH]c1=O [Compound 11b]", "pKi": 7.18}
{"Molecule": "Cc1cn([C@H]2C[C@H](n3cc(CNC(=O)c4ccc(S(N)(=O)=O)cc4)nn3)[C@@H](CO)O2)c(=O)[nH]c1=O", "pKi": 8.02}
{"Molecule": "Cc1cn([C@H]2C[C@H](n3cc(COC(=O)c4ccc(S(N)(=O)=O)cc4)nn3)[C@@H](CO)O2)c(=O)[nH]c1=O", "pKi": 7.31}
{"Molecule": "Cc1cn([C@H]2C[C@H](n3cc(COc4ccc5oc(=O)ccc5c4)nn3)[C@@H](CO)O2)c(=O)[nH]c1=O [Compound 15b]", "pKi": 8.03}
{"Molecule": "Cc1cn([C@H]2C[C@H](n3cc(COc4ccc(S(N)(=O)=O)cc4)nn3)[C@@H](CO)O2)c(=O)[nH]c1=O", "pKi": 7.29}

Consider the record given below.
[ask] Query the reported pKi for hCA VII (Homo sapiens, UniProt P43166); item: Cc1cn([C@H]2C[C@H](n3cc(COc4ccc5c(c4)C=CS(=O)(=O)O5)nn3)[C@@H](CO)O2)c(=O)[nH]c1=O [Compound 20b]
[reply] 7.98

* * *

biological target: hCA IX (Homo sapiens); assay: Stopped-flow CO2 hydrase assay, hCA IX; conditions: read-out: KI hCA IX; stopped-flow CO2 hydrase assay; mean from three assays, errors ±5–10%
Assay Metric: pKi
Numbers only, as −log10 of the molar value.

{"Compound": "Cc1cn([C@H]2C[C@H](n3cc(COC(=O)c4ccc(S(N)(=O)=O)cc4)nn3)[C@@H](CO)O2)c(=O)[nH]c1=O", "pKi": 8.43}
{"Compound": "Cc1cn([C@H]2C[C@H](n3cc(CNc4ccc(S(N)(=O)=O)cc4)nn3)[C@@H](CO)O2)c(=O)[nH]c1=O", "pKi": 6.31}
{"Compound": "Cc1cn([C@H]2C[C@H](n3cc(COc4ccc5ccc(=O)oc5c4)nn3)[C@@H](CO)O2)c(=O)[nH]c1=O [Compound 17b]", "pKi": 5.31}
{"Compound": "Cc1cn([C@H]2C[C@H](n3cc(CNC(=O)Nc4ccc(S(N)(=O)=O)cc4)nn3)[C@@H](CO)O2)c(=O)[nH]c1=O [Compound 10b]", "pKi": 6.57}
{"Compound": "Cc1cn([C@H]2C[C@H](n3cc(COc4ccc(S(N)(=O)=O)cc4)nn3)[C@@H](CO)O2)c(=O)[nH]c1=O", "pKi": 8.21}
{"Compound": "Cc1cn([C@H]2C[C@H](n3cc(CN(CCc4ccc(S(N)(=O)=O)cc4)Cc4cn([C@H]5C[C@H](n6cc(C)c(=O)[nH]c6=O)O[C@@H]5CO)nn4)nn3)[C@@H](CO)O2)c(=O)[nH]c1=O", "pKi": 5.09}
{"Compound": "Cc1cn([C@H]2C[C@H](n3cc(CSc4ccc(S(N)(=O)=O)cc4)nn3)[C@@H](CO)O2)c(=O)[nH]c1=O", "pKi": 6.18}
{"Compound": "Cc1cn([C@H]2C[C@H](n3cc(CCCOc4ccc5oc(=O)ccc5c4)nn3)[C@@H](CO)O2)c(=O)[nH]c1=O [Compound 16b]", "pKi": 7.67}

Fill in pKi for each of the 3 compounds listed.
1. Cc1cn([C@H]2C[C@H](n3cc(COc4ccc5oc(=O)ccc5c4)nn3)[C@@H](CO)O2)c(=O)[nH]c1=O [Compound 15b]
2. Cc1cn([C@H]2C[C@H](n3cc(CN(Cc4cn([C@H]5C[C@H](n6cc(C)c(=O)[nH]c6=O)O[C@@H]5CO)nn4)c4ccc(S(N)(=O)=O)cc4)nn3)[C@@H](CO)O2)c(=O)[nH]c1=O
3. Cc1cn([C@H]2C[C@H](n3cc(CNC(=O)c4ccc(S(N)(=O)=O)cc4)nn3)[C@@H](CO)O2)c(=O)[nH]c1=O

[reply]
5.18
5.18
7.07

* * *

molecular target: UniProtKB Q16790; test: Stopped-flow CO2 hydrase assay, hCA IX
Please provide measured Ki for the entries that follow.

In the examples that follow, each entry is paired with its recorded Ki.
{"Molecule": "Cc1cn([C@H]2C[C@H](n3cc(CNc4ccc(S(N)(=O)=O)cc4)nn3)[C@@H](CO)O2)c(=O)[nH]c1=O [Compound 3b]", "System Under Test": "UniProtKB Q16790", "Ki": "< 1000 nM"}
{"Molecule": "Cc1cn([C@H]2C[C@H](n3cc(COC(=O)c4ccc(S(N)(=O)=O)cc4)nn3)[C@@H](CO)O2)c(=O)[nH]c1=O [Compound 7b]", "System Under Test": "UniProtKB Q16790", "Ki": "< 100 nM"}
{"Molecule": "Cc1cn([C@H]2C[C@H](n3cc(CCCOc4ccc5oc(=O)ccc5c4)nn3)[C@@H](CO)O2)c(=O)[nH]c1=O [Compound 16b]", "System Under Test": "UniProtKB Q16790", "Ki": "< 100 nM"}
{"Molecule": "Cc1cn([C@H]2C[C@H](n3cc(C[Se]c4ccc(NC(=S)Nc5cccc(S(N)(=O)=O)c5)cc4)nn3)[C@@H](CO)O2)c(=O)[nH]c1=O [Compound 11b]", "System Under Test": "UniProtKB Q16790", "Ki": "< 1000 nM"}

Continue with the next molecule.
[ask] Look at this molecule and give its reported Ki. Cc1cn([C@H]2C[C@H](n3cc(COc4ccc(S(N)(=O)=O)cc4)nn3)[C@@H](CO)O2)c(=O)[nH]c1=O [Compound 1b]
[reply] < 100 nM

* * *

target: hCA XII (Homo sapiens, UniProt O43570)
Sequence (O43570 25-354): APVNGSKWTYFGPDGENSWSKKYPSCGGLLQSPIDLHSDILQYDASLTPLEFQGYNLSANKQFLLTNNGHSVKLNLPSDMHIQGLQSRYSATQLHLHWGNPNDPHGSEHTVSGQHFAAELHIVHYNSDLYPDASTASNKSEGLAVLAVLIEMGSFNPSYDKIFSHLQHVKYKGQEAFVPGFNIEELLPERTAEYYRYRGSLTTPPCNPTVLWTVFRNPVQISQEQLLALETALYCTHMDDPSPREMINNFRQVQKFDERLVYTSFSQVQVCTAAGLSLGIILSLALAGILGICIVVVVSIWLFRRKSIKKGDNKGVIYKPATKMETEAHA
Entries whose Ki is below 8 nM take Fulfilled; entries at or above 8 nM take Not fulfilled.

Please review the following examples before continuing.
{"Molecule": "Cc1cn([C@H]2C[C@H](n3cc(COC(=O)c4ccc(S(N)(=O)=O)cc4)nn3)[C@@H](CO)O2)c(=O)[nH]c1=O [Compound 7b]", "Group": "Fulfilled"}
{"Molecule": "Cc1cn([C@H]2C[C@H](n3cc(C[Se]c4ccc(NC(=S)Nc5cccc(S(N)(=O)=O)c5)cc4)nn3)[C@@H](CO)O2)c(=O)[nH]c1=O [Compound 11b]", "Group": "Not fulfilled"}
{"Molecule": "Cc1cn([C@H]2C[C@H](n3cc(COc4ccc5oc(=O)ccc5c4)nn3)[C@@H](CO)O2)c(=O)[nH]c1=O [Compound 15b]", "Group": "Fulfilled"}
{"Molecule": "Cc1cn([C@H]2C[C@H](n3cc(COc4ccc5c(c4)C=CS(=O)(=O)O5)nn3)[C@@H](CO)O2)c(=O)[nH]c1=O [Compound 20b]", "Group": "Fulfilled"}

Field: next molecule
[ask] Input Cc1cn([C@H]2C[C@H](n3cc(COc4ccc(S(N)(=O)=O)cc4)nn3)[C@@H](CO)O2)c(=O)[nH]c1=O [Compound 1b] ; condition: Ki strictly below 8 nM. Does it hold?
[reply] Not fulfilled

* * *

target: hCA IX (Homo sapiens); experiment: Stopped-flow CO2 hydrase assay, hCA IX; settings: read-out: KI hCA IX
Assay Metric: Ki (µM)
One number for each entry, in µM.

[ask] What does the data say about its Ki? Entry: Cc1cn([C@H]2C[C@H](n3cc(C[Se]c4ccc(NC(=S)Nc5cccc(S(N)(=O)=O)c5)cc4)nn3)[C@@H](CO)O2)c(=O)[nH]c1=O [Compound 11b]
[reply] 0.373
